system: Amb a 1-specific T cell lines (TCL); assay: T cell epitope mapping of Amb a 1.3: proliferation (3H-thymidine uptake) of TCL stimulated with synthetic peptides; type: cell-based, human; conditions: TCL from 48 ragweed pollen-allergic patients; peptide 5 μg/ml; stimulation index > 5

- residue_sequence: "ILLGADDTHVQD (Amb a 1 fragment) [Peptide 74]"
  % (positive patients SI > 5): "2.1%"
- residue_sequence: "ALADCAQGFAKG (Amb a 1 fragment) [Peptide 15]"
  % (positive patients SI > 5): "4.2%"
- residue_sequence: "GEAAIKLTSSAG (Amb a 1 fragment) [Peptide 118]"
  % (positive patients SI > 5): "16.7%"
- residue_sequence: "ISNCKFTQQSKA (Amb a 1 fragment) [Peptide 70]"
  % (positive patients SI > 5): "2.1%"
- residue_sequence: "LTSSAGVLSCRP (Amb a 1 fragment) [Peptide 120]"
  % (positive patients SI > 5): "18.8%"
- residue_sequence: "PSVNETRSLQAC (Amb a 1 fragment) [Peptide 4]"
  % (positive patients SI > 5): "2.1%"
- residue_sequence: "MVINLNQELVVN (Amb a 1 fragment) [Peptide 34]"
  % (positive patients SI > 5): "4.2%"
- residue_sequence: "GNRFLAPDDQIK (Amb a 1 fragment) [Peptide 96]"
  % (positive patients SI > 5): "8.3%"
- residue_sequence: "DTINVAGSSQIW (Amb a 1 fragment) [Peptide 58]"
  % (positive patients SI > 5): "2.1%"
- residue_sequence: "SAEGVGEILPSV (Amb a 1 fragment) [Peptide 1]"
  % (positive patients SI > 5): "0.0%"
- residue_sequence: "TSGSDPVLTPVQ (Amb a 1 fragment) [Peptide 111]"
  % (positive patients SI > 5): "22.9%"
- residue_sequence: "AKGTYGGKWGDV (Amb a 1 fragment) [Peptide 18]"
  % (positive patients SI > 5): "0.0%"
- residue_sequence: "NETRSLQACEAY (Amb a 1 fragment) [Peptide 5]"
  % (positive patients SI > 5): "0.0%"
- residue_sequence: "RCRFGFFQVVNN (Amb a 1 fragment) [Peptide 85]"
  % (positive patients SI > 5): "2.1%"
- residue_sequence: "DKCWRGKADWEN (Amb a 1 fragment) [Peptide 10]"
  % (positive patients SI > 5): "4.2%"
- residue_sequence: "TIDGRGVKVEII (Amb a 1 fragment) [Peptide 39]"
  % (positive patients SI > 5): "33.3%"
- residue_sequence: "PVQSAGMIPAEP (Amb a 1 fragment) [Peptide 114]"
  % (positive patients SI > 5): "10.4%"
- residue_sequence: "TQQSKAILLGAD (Amb a 1 fragment) [Peptide 72]"
  % (positive patients SI > 5): "4.2%"
- residue_sequence: "QACEAYNIIDKC (Amb a 1 fragment) [Peptide 7]"
  % (positive patients SI > 5): "0.0%"
- residue_sequence: "GDVYTVTSNLDD (Amb a 1 fragment) [Peptide 21]"
  % (positive patients SI > 5): "2.1%"
- residue_sequence: "NPKEGTLRFAAA (Amb a 1 fragment) [Peptide 26]"
  % (positive patients SI > 5): "0.0%"
- residue_sequence: "NIIDKCWRGKAD (Amb a 1 fragment) [Peptide 9]"
  % (positive patients SI > 5): "4.2%"
